assay: Water solubility of peptides; format: physicochemical; conditions: high concentrations, read-out: concentration at which not water soluble
No end group written: not given here.
assayMetric: solubility

Could you share which solubility value was measured for MRGIRGADFQAFQQARAVGLAGTFR [hP2] ?
> 2500 µg/mL
